assay: Oral bioavailability in rat at 500 mg/kg; assay type: ADME, organism-based; conditions: in vivo

[
  {
    "CPD SMILES": "COc1cc(/C=C/C(=O)CC(=O)/C=C/c2ccc(O)c(OC)c2)ccc1O",
    "bioavailability, %": 1
  }
]
